This collection of values is drawn from patent US20220389013A1.

# assay.text: Pharmacokinetic (PK) experiment in rats by gavage
# Format: in vivo
# measurement.context: rat, plasma, po, male SD rats, 20 mg/kg
Assign class by half-life: not lower than 3 h means 1 (yes); lower than 3 h means 0 (no).

{"compound": "C=CC(=O)N1CCN(c2nc(=O)n(-c3c(C)ccnc3C(C)C)c3nc(-c4c(F)ccc5ccoc45)c(Cl)cc23)[C@@H](C)C1 [Compound 73]", "answer.label": "1 (yes)"}
{"compound": "C=CC(=O)N1CCN(c2nc(=O)n(-c3c(C)ccnc3C(C)C)c3nc(-c4c(F)ccc5ccoc45)c(Cl)cc23)[C@@H](C)C1 (single isomer, unassigned) [Compound 73-1]", "answer.label": "1 (yes)"}
{"compound": "C=CC(=O)N1C[C@H](C)N(c2nc(=O)n(-c3c(C)ccnc3C(C)C)c3nc(-c4c(F)ccc5ccoc45)c(F)cc23)C[C@H]1C [Compound 89]", "answer.label": "0 (no)"}
{"compound": "C=CC(=O)N1C[C@H](C)N(c2nc(=O)n(-c3c(C)ccnc3C(C)C)c3nc(-c4c(F)ccc5ccoc45)c(Cl)cc23)C[C@H]1C [Compound 90]", "answer.label": "1 (yes)"}

Please find the next compound below.
Has `C=CC(=O)N1CCN(c2nc(=O)n(-c3c(C)ccnc3C(C)C)c3nc(-c4c(F)cc(F)c5ccoc45)c(Cl)cc23)[C@@H](C)C1` a recorded half-life greater than or equal to 3 h?
0 (no)
